system: Eimeria acervulina, Eimeria maxima and Eimeria tenella; experiment: Cage experiments coccidiosis/chicks, mixed experimental infection; format: in vivo, chicken chicks; details: 25 ppm in feed
Give mortality n (died/employed) for every item shown.

Short answer for Cc1oc(=O)oc1Cn1c(C(F)(F)F)nc2cc(Cl)c(C(F)(F)F)cc21 : mortality n (died/employed) was 0/3

Short answer for Cc1oc(=O)oc1Cn1c(C(F)(F)F)nc2c(Cl)cc3c(c21)OC(F)(F)C(F)(F)O3 : mortality n (died/employed) was 3/3

Short answer for Cc1oc(=O)oc1Cn1c(C(F)(F)F)nc2cc(C(F)(F)F)c(Cl)cc21 : mortality n (died/employed) was 0/3

Short answer for Cc1oc(=O)oc1Cn1c(C(F)(F)F)nc2c(C(F)(F)F)cc(C(F)(F)F)cc21 : mortality n (died/employed) was 3/3

Short answer for Cc1oc(=O)oc1Cn1c(C(F)(F)F)nc2c(Cl)cc(C(F)(F)F)cc21 : mortality n (died/employed) was 0/3

Cited source for all entries: patent US6569881B1
